# assay.overview: A549 lung cancer cell viability effects, profiling panel, resazurin fluorescence, 24 h, PK04 Diversity Set (AID 1171); further: test concentration not given here
# condition.label: higher = more signal, called active from +8 up or from −8 down
measured.metric: z-score
Answer as a number with no unit attached.

INSERT INTO assay_data (compound, measurement) VALUES
  ('Cc1ccc(S[C@]2(C(=O)O)CC(=O)N(Cc3cc(C(F)(F)F)cc(C(F)(F)F)c3)[C@@H]2c2ccc(CO)cc2)cc1', -0.0055),
  ('C=CC[C@]1(C(=O)O)COC(c2ccc(OCCCO)cc2)=N1', -0.408),
  ('CCOC(=O)C[C@H]1[C@H](OC(=O)c2cc3ccccc3oc2=O)[C@@H](NC(=O)c2ccc(-c3ccccc3)cc2)c2cc(OCCCO)ccc2N1C(=O)c1ccc2ccccc2n1', 0.73),
  ('COc1ccc([Si](C)(C)[C@H]2[C@H](CCO)O[C@@]3(C(=O)N(Cc4cccc(N5C(=O)COc6ccccc65)c4)c4ccccc43)[C@@H]2C)cc1', -2.14),
  ('CC(CO)N1C(=O)[C@@H]2[C@H]3C(=O)OCC=C[C@H]3OC23C=CCN(Cc2ccccc2)C(=O)[C@@H]13 (some centres not stated)', 0.881),
  ('C=C(COC)C(=O)CC[C@@H](OC(=O)c1cccnc1)c1ccc(OCCO)cc1', -0.284);

QUERY: Param item = O=C1O[C@@H](c2ccccc2)[C@@H](c2ccccc2)N2[C@@H](c3ccc(OCCO)cc3)[C@]3(C(=O)Nc4ccccc43)[C@@H](C(=O)O)[C@H]12 ; retrieve measured z-score.
RESULT: 0.225

* * *

# assay.overview: small-molecule microarray binders of probe aXIP, primary screen, biochemical, NeuroSMM set, 635/667 nm fluorescence (AID 1119);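 further: probe is the protein aXip251-270 applied at 1 µg/mL to compound-printed slides; binding of probe to printed compounds measured as 667 nm fluorescence plus signal to noise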
# condition.label: higher = more signal, called active from +8 up or from −8 down
Classes based on composite Z-score: low group = under -0.2, middle group = from -0.2 up to 0.4, high group = 0.4 and over

INSERT INTO measurements (compound, class_label) VALUES
  ('COC(=O)[C@@]1(Cc2ccc(OC)cc2)[C@H]2c3cc(C(=O)N(C)C)n(C[C@H](O)CO)c3C[C@H]2CN1C(=O)c1ccccc1', 'low group');

QUERY: Bin this entry: [N-]=[N+]=NCc1ccccc1[C@H]1OC(c2ccc(OCCCO)cc2)=N[C@@]1(CCS(=O)(=O)c1ccccc1)C(=O)N1CCCCC1
RESULT: middle group

QUERY: // repeat for O=C1O[C@H](c2ccccc2)[C@H](c2ccccc2)N2[C@H]1[C@@H](C(=O)Nc1nc3ccccc3s1)[C@]1(C(=O)Nc3ccc(C#CC4(O)CCCCCC4)cc31)[C@H]2c1ccccc1OCCO and report
RESULT: low group

QUERY: // repeat for CCCC[C@@H](O)C1=C(COc2ccccc2)C[C@H]2C(=O)N(C)C(=O)[C@H]2[C@H]1CO and report
RESULT: middle group

QUERY: // repeat for CC(C)N1C(=O)C[C@@](C(=O)NCCCN(C)C)(c2ccc([N+](=O)[O-])cc2)[C@H]1c1ccc(CO)cc1 and report
RESULT: middle group

QUERY: // repeat for C=CC1c2cc(O)c(OC)cc2CCN1Cc1cc2c(cc1Br)OCO2 (configuration not stated) and report
RESULT: high group
